# measured_on: hRIPK1 (aa 1-375) fusion protein (Homo sapiens)
# Construct: hRIPK1 (aa 1-375) fusion protein
# Sequence (Q13546 1-375): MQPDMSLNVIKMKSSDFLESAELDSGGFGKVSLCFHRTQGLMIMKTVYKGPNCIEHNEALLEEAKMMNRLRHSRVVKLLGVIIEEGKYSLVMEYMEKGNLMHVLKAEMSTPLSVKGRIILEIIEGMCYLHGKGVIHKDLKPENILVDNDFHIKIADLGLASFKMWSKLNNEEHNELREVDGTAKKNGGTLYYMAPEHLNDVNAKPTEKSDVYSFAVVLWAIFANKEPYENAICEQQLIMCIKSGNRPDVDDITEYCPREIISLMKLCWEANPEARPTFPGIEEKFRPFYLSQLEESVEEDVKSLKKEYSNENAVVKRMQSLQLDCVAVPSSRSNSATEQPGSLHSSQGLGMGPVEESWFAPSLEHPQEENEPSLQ
# assay_explanation: ADP-Glo kinase assay, RIPK1 autophosphorylation
# Type: biochemical
# details: Table 1
pIC50: −log10 of the molar value.
measured_parameter: pIC50

Answered examples (2):
> print(dat)
                                   molecule  assay.value
1  O=C(O)c1nc(Cl)ncc1N1CCC(C(=O)N2OCC[C@H]2c2cnccn2)CC1         4.76
2  CSc1nccc(N2CCC(C(=O)N3OCC[C@H]3c3cncc(C#N)c3)CC2)n1         7.34

[a] NC(=O)c1nc(N2CCC(F)(C(=O)N3OCC[C@H]3c3cncc(F)c3)CC2)ncc1F
[b] N#Cc1cc(N2CCC(C(=O)N3OCCC3c3cncc(F)c3)CC2)ncn1 (racemic)
Query string: Of a and b , which one carries the higher reported pIC50? # answer = label of selected item
Result string: b

Where do the numbers come from? From patent US12655139B2.
